# Target: human MC4R (Homo sapiens)
# Construct: host or cells: HEK-293 cells stably expressing the GScAMP22F split-luciferase cAMP sensor and hMC4R, G418 selection
# Sequence (P32245 whole entry): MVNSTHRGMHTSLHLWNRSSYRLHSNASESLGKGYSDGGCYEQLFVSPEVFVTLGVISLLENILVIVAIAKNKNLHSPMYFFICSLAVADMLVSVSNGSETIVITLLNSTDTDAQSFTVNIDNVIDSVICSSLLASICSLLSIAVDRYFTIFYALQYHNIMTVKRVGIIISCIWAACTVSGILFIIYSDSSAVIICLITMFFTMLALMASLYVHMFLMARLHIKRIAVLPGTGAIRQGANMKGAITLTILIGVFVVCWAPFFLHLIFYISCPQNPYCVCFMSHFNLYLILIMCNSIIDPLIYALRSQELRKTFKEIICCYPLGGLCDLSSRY
# Assay details: split-luciferase cAMP sensor assay, agonist mode (measurement window 1), hMC4R
# Format: cell-based
# Particulars: % maximal activation, agonist mode; read-out: MC4R cAMP % max activation
Positions of bridges follow the written chain, without caps; N, C: chain ends. Non-standard residues stand in square brackets, D forms with d. Residues, ends and D or L forms follow the SMILES beside them. hCit = NC(=O)NCCCC[C@H](N)C(=O)O; Cit = NC(=O)NCCC[C@H](N)C(=O)O; Aib = CC(C)(N)C(=O)O
Record form. Attribute: Emax. Fill in for each entry.
Numbers only, in %.

Example cases with answers are listed next.
INSERT INTO results (compound, reported) VALUES
  ('CC(=O)N[C@H]1CSSC[C@@H](C(N)=O)NC(=O)[C@H](Cc2c[nH]c3ccccc23)NC(=O)[C@H](CCCNC(=N)N)NC(=O)[C@@H](Cc2ccccc2)NC(=O)[C@H](Cc2c[nH]cn2)NC(=O)C(C)(C)NC1=O', 107),
  ('CC1(C)NC(=O)CSC[C@@H](C(N)=O)NC(=O)[C@H](Cc2c[nH]c3ccccc23)NC(=O)[C@H](CCCNC(=N)N)NC(=O)[C@@H](Cc2ccccc2)NC(=O)[C@H](CCCNC(N)=O)NC1=O [CTX-1649] ({CH2CO}-[Aib][Cit][dF]RWC-NH2; thioether N-6)', 97),
  ('CC(=O)N[C@@H](CCCNC(=N)N)C(=O)N[C@H]1CSSC[C@@H](C(N)=O)NC(=O)[C@@H](Cc2c[nH]c3ccccc23)NC(=O)[C@H](CCCNC(=N)N)NC(=O)[C@@H](Cc2ccccc2)NC(=O)[C@H](Cc2c[nH]cn2)NC(=O)C(C)(C)NC1=O', 99);

Read the next record carefully.
Using human MC4R (Homo sapiens) as the test system, report measured Emax of CC(=O)N[C@@H](CCCNC(=N)N)C(=O)N[C@H]1CSSC[C@@H](C(N)=O)NC(=O)[C@H](Cc2ccccc2)NC(=O)[C@H](CCCNC(=N)N)NC(=O)[C@@H](Cc2ccccc2)NC(=O)[C@H](CCCCNC(N)=O)NC(=O)C(C)(C)NC1=O [CTX-1603] (Ac-RC[Aib][hCit][dF]RFC-NH2; disulfide 2-8 (inferred)) .
91
